system: SF-268 CNS; assay: NCI-60 one-dose screen, 48 h (100 = growth as untreated, 0 = no growth, -100 = all killed); settings: 10 µM unless noted
This is part of a sample that, as a whole, favours compounds with a hit. Of some 83,000 tested, about 20% had one in any assay.
The entries below are paired with their reported growth.
Give a bare numeral; the unit % is implied.

Given smiles	growth [%]
Cc1ccc([N+](=O)[O-])cc1NC(=O)Nc1cccc(F)c1	100
Cc1nn(-c2ccccc2)c(Cl)c1C(CC(=O)c1ccc(Cl)cc1)CC(=O)c1ccc(Cl)cc1	91.3
O=C(CN1CCCCC1)Sc1nnc2sc3ccccc3n12	102

Qu. // returns reported growth for input `C=CCCCCCCCCC(=O)[O][Sn]([CH2]CCC)([CH2]CCC)[CH2]CCC`
Ans. -97.3

Qu. // returns reported growth for input `Cc1ccc2c(c1)O/C(=C\c1ccc([N+](=O)[O-])o1)C2=O`
Ans. 29.3

###

system: SK-MEL-28 melanoma; test: NCI-60 one-dose screen, 48 h; details: 10 µM unless noted
About 83,000 compounds went through this panel and 20% of them were active in at least one assay; those are over-represented in the sample as a whole. Calls of active or inactive are those of the source. How the source made its calls: active means growth percent below 10; inactive means the rest.
Reply using exactly one outcome from active, inactive

Compound	Assay target	Label value
N#Cc1c2ccccc2c2n1-c1ccccc1OC(c1ccccc1)C2=O (stereo unspecified)	SK-MEL-28 melanoma	inactive
Cc1cc(CC(=O)O)n(C)c1C(=O)c1ccc(Cl)cc1	SK-MEL-28 melanoma	inactive
Cc1cc(NC(=O)Nc2cc(Cl)ccc2C)no1	SK-MEL-28 melanoma	inactive
COc1ccc(C(=O)C(C)Br)cc1OC (stereo unspecified)	SK-MEL-28 melanoma	inactive
NNC(=O)C1CC2c3ccccc3C1c1ccccc12 (stereo unspecified)	SK-MEL-28 melanoma	inactive

Qu. What is the recorded call for this compound in the test? `O=Cc1c[nH]c2ccc(NC(=O)OCc3ccccc3)cc12`
Ans. inactive

Qu. What is the recorded call for this compound in the test? `CCn1c2ccccc2c2ccc(C(C)=O)cc21`
Ans. inactive

Qu. What is the recorded call for this compound in the test? `Cc1ccc(NC(=O)Nc2ccc(-c3cccnc3)cc2N2CCC(CO)CC2)cc1`
Ans. active

Qu. What is the recorded call for this compound in the test? Nc1ccc(C2=NN(c3ccccc3)C(c3ccc(Cl)cc3)C2)cc1 (stereo unspecified)
Ans. inactive

Qu. What is the recorded call for this compound in the test? `Oc1ccccc1/C=N\Nc1ccccc1`
Ans. inactive

Qu. What is the recorded call for this compound in the test? `O=C1OC(c2ccc(-c3ccccc3)cc2)=C/C1=C/c1cccs1`
Ans. inactive

Qu. What is the recorded call for this compound in the test? `Fc1ccc(-c2nnc(/C=C/c3cn(-c4ccccc4)nc3-c3ccccc3)o2)cc1`
Ans. inactive

Qu. What is the recorded call for this compound in the test? `c1ccc(-c2nn[nH]n2)c(-c2ccc(CN3CCN(c4nsc5ccccc45)CC3)cc2)c1`
Ans. inactive

###

tested on: PC-3 prostate; test: NCI-60 one-dose screen, 48 h (100 = growth as untreated, 0 = no growth, -100 = all killed); conditions: 10 µM unless noted
About 83,000 compounds went through this panel and 20% of them were active in at least one assay; those are over-represented in the sample as a whole.
Definition: the class of an entry is the range in lower bin (below 40%), middle bin (40% to below 80%), upper bin (80% or more) that contains its growth.

Qu. Form field 'band' for `CCCCc1nc(Cl)c(CO)n1Cc1ccc(-c2ccccc2-c2nn[nH]n2)cc1`
Ans. upper bin

Qu. Form field 'band' for `Cc1c(N(C)CS(=O)(=O)O)c(=O)n(-c2ccccc2)n1C`
Ans. upper bin

Qu. Form field 'band' for `COc1cc(/C=C2\COc3ccc(O)c(O)c3C2=O)cc(OC)c1`
Ans. lower bin

Qu. Form field 'band' for COc1ccc(C(=O)C(C)Br)cc1OC (centres undefined)
Ans. upper bin

Qu. Form field 'band' for O=c1ccn(C2CCCO2)c(=O)[nH]1 (centres undefined)
Ans. upper bin

###

test system: MDA-MB-231 breast; assay: NCI-60 one-dose screen, 48 h (100 = growth as untreated, 0 = no growth, -100 = all killed); conditions: 10 µM unless noted
Compounds without any hit were thinned out: in the full panel of roughly 83,000, 20% have a hit.
Strictly below 90% in growth: TRUE. Otherwise: FALSE.

The examples below pair each entry with its known result.
Molecule	Label value
Cc1nnc(Nc2ccc(NC(=O)Nc3ccc(Cl)cc3)cc2)c2ccccc12	TRUE
[O-]/[N+](=C\C=C\c1ccccc1)c1ccccc1	FALSE
C=Cc1nn2c(CCC(=O)c3nc4ccccc4[nH]3)nnc2s1	FALSE

Qu. Confirm or reject: growth of `COc1ccc(Nc2nccc(N3CCN(c4c5ccc(Cl)cc5nc5ccc(OC)cc45)CC3)n2)cc1` lies strictly below 90%
Ans. TRUE

###

The entries below are paired with their reported growth.
system: M14 melanoma; test: NCI-60 one-dose screen, 48 h (100 = growth as untreated, 0 = no growth, -100 = all killed); conditions: 10 µM unless noted
About 83,000 compounds went through this panel and 20% of them were active in at least one assay; those are over-represented in the sample as a whole.
Give a bare numeral; the unit % is implied.

Example cases with answers are listed next.
Compound	Unit descriptor	growth
Cc1cc(C(C)(C)c2cc(C)c(O)c(CN(C)C)c2)cc(CN(C)C)c1O	%	77.7
COc1ccc(-c2nn(-c3ccccc3)cc2/C=C2\SC(=S)N(CCc3ccc(O)cc3)C2=O)cc1	%	91.3
CC12CCC3C(CCC4CC(=O)/C(=C\O)CC43C)C1CCC(=O)O2 (stereo not given)	%	95.2
NNC(=O)C1CC2c3ccccc3C1c1ccccc12 (stereo not given)	%	111

Here is another compound to look at.
Qu. // returns reported growth for input CCC1=C(c2ccc(OC)cc2)C(C)Oc2cc(OC(C)=O)ccc21 (stereo not given)
Ans. 83.4

###

system: CCRF-CEM leukemia; test: NCI-60 one-dose screen, 48 h; conditions: 10 µM unless noted
The panel holds about 83,000 compounds, 20% with a hit somewhere; the sample as a whole holds those more often. Active and inactive are the calls of the source. How the source made its calls: active means growth percent below 10; inactive means the rest.
Reply using exactly one outcome from active, inactive

The examples below pair each entry with its known result.
Molecule	Label value
COC(=O)CCC1=C(C)C(C)=N/C1=C\c1[nH]c(-c2ccc[nH]2)cc1OC	active
COc1ccc(-c2c(-c3cc(OC)c(OC)c(OC)c3)noc2N)cc1	active
COc1cccc(CCC2C(=O)CCCC2=O)c1	inactive

Qu. What is the recorded call for this molecule in the test? `O=C(/C(=C/c1cccc([N+](=O)[O-])c1)c1ccccc1)c1ccccc1`
Ans. active

Qu. What is the recorded call for this molecule in the test? `O=C(Nc1ccc(Cl)cc1Cl)Nc1ccc(-c2cccnc2)cc1N1CCC(CO)CC1`
Ans. inactive

Qu. What is the recorded call for this molecule in the test? `COc1ccc(-c2nn(-c3ccccc3)cc2/C=C2\SC(=S)N(CCc3ccc(O)cc3)C2=O)cc1`
Ans. inactive

Qu. What is the recorded call for this molecule in the test? `Fc1ccc(-c2nc(Nc3ccc(-c4nc5ccccc5[nH]4)cc3)nc(N3CCOCC3)n2)cc1`
Ans. active

Qu. What is the recorded call for this molecule in the test? CSc1nc2c(c(=O)n1C)C(c1ccccc1)C1=C(N2)/C(=C/c2ccccc2)CCC1 (centres undefined)
Ans. inactive

Qu. What is the recorded call for this molecule in the test? `COc1ccc(-c2cc(Cc3cccs3)c(=O)n(Cn3ccc4ccccc43)n2)cc1`
Ans. inactive

Qu. What is the recorded call for this molecule in the test? `O=C(C=C=Nc1ccccc1)C(=O)N=C=Cc1ccccc1`
Ans. active

Qu. What is the recorded call for this molecule in the test? COC1=CC(c2ccc[nH]2)=N/C1=C\c1[nH]c(C)c(C(=O)CCC(=O)Oc2ccc3c(c2)CCC2C3CC[C@]3(C)C(=O)CC[C@@H]23)c1C (some centres undefined)
Ans. inactive

Qu. What is the recorded call for this molecule in the test? `O=C(Nc1cccc(C(F)(F)F)c1)Nc1ccc(OCc2nnc(-c3ccc(Cl)cc3)o2)c(F)c1`
Ans. inactive

Qu. What is the recorded call for this molecule in the test? Nc1nc2ncc(CCNc3ccc(C(=O)NC(CCC(=O)O)C(=O)O)cc3)nc2c(=O)[nH]1 (centres undefined)
Ans. inactive

Qu. What is the recorded call for this molecule in the test? `Nc1ccc2c3c(cccc13)-c1ccccc1-2`
Ans. inactive

Qu. What is the recorded call for this molecule in the test? CC(=O)Oc1ccc(C23c4ccccc4C2(OC(C)=O)c2cc(OC(C)=O)ccc23)cc1 (centres undefined)
Ans. inactive

Qu. What is the recorded call for this molecule in the test? `COc1ccc(/C(=C2\O[C@@H]([C@H](O)CO)[C@H]3OC(C)(C)O[C@@H]23)c2cc(OC)c(OC)c(OC)c2)cc1O`
Ans. inactive

Qu. What is the recorded call for this molecule in the test? `CCN1C2=C(SC(=S)C1=C1SC(C(=O)OC)=C(C(=O)OC)S1)SC(=Nc1ccc(OC)cc1)C2=O`
Ans. active

Qu. What is the recorded call for this molecule in the test? `O=C1/C(=C/c2ccc([N+](=O)[O-])o2)Oc2ccc(Cl)cc21`
Ans. active

Qu. What is the recorded call for this molecule in the test? `O=C(c1nn(-c2ccc(Cl)cc2)cc1O)n1nc(C(F)(F)F)cc1-c1ccccc1`
Ans. active
